- Target: Pro-cathepsin H (Homo sapiens)
- Sequence (P09668 116-335 limits assumed, other chains not shown): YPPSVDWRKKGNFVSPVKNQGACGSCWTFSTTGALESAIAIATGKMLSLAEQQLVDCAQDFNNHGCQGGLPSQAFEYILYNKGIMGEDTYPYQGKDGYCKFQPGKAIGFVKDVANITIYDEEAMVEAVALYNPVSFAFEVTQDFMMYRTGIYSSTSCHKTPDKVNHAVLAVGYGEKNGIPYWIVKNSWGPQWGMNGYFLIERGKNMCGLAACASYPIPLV
- Assay Info: Compound was evaluated for inhibition constant for the non-time dependent inhibition of Cathepsin H.
Observation Type: Ki
Field note: include the unit after the figure.

Prompt: Lab note: record Ki of `CCOC(=O)[C@@H]1[C@@H](C(=O)OCC)N1C(=O)[C@H](Cc1ccccc1)NC(=O)OC(C)(C)C` tested on Pro-cathepsin H (Homo sapiens).
Response: 210 µM

----------
- Target: Cathepsin B (Bos taurus) (UniProt P07688)
- Assay Info: Evaluated for second-order rate constants for the inactivation of mammalian lysosomal cathepsin B.
Observation Type: ki/Ki
A bare number is not enough; add the unit after it.

// worked examples, ki/Ki included
CCOC(=O)C1C(C(=O)O)N1C(=O)[C@H](Cc1ccccc1)NC(=O)OC(C)(C)C (stereo partly drawn)
20.5 M⁻¹ s⁻¹
CCOC(=O)[C@H]1N[C@@H]1C(=O)N[C@@H](CC(C)C)C(=O)N1CCC[C@H]1C(=O)OCc1ccccc1
6.75 M⁻¹ s⁻¹

Prompt: Assign ki/Ki to the following record: CCOC(=O)[C@H]1[C@H](C(=O)N[C@@H](CC(C)C)C(=O)N2CCCC2C(=O)OCc2ccccc2)N1C(=O)[C@H](Cc1ccccc1)NC(=O)OC(C)(C)C (stereo partly drawn)
Response: 32.3 M⁻¹ s⁻¹
